- Tgt: T1, human NPY2R (human, UniProt P49146 1-381)
- T1 sequence (looked up): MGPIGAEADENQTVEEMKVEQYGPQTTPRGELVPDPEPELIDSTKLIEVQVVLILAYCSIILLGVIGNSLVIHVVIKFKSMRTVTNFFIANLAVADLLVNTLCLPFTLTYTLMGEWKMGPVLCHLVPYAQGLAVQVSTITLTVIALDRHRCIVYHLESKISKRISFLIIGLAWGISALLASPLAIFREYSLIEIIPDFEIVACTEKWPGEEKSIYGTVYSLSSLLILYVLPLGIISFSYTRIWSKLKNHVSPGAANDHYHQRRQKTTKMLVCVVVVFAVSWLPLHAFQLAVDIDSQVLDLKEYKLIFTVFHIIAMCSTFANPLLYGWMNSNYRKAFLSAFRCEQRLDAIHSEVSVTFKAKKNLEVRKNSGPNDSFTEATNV
- Protocol: cell-based or functional assay
Square brackets hold non-standard residues; d marks the D form. Side chains are listed from the residue outwards. Phe(2-F) = N[C@@H](Cc1ccccc1F)C(=O)O; αMeF = C[C@](N)(Cc1ccccc1)C(=O)O; Iva = CC[C@](C)(N)C(=O)O; Oda = not defined here; Aib = CC(C)(N)C(=O)O
Readout Name: Agonist activity (EC50), Cre-luc reporter assay (nM)

# Binder, Measured
records = [
    ("H-Y[Aib]EGT[αMeF]TSDK([Gly-Gly-Gly-Gly-Oda])[Aib]I[Aib]LEKQRQ[Iva]EFVRHLLNK[Aib]TRQRY-NH2 (reading uncertain; also: printed as H-Tyr-Aib-Glu-Gly-Thr-αMePhe-Thr-Ser-Asp-Lys(-Gly-Gly-Gly-Gly-Oda)-Aib-Ile-Aib-Leu-Glu-Lys-Gln-Arg-Gln-Iva-Glu-Phe-Val-Arg-His-Leu-Leu-Asn-Lys-Aib-Thr-Arg-Gln-Arg-Tyr-NH2)", 2.7),
    ("Me-Y[Aib]EGT[αMeF]TSDK([Gly-Gly-Gly-Gly-Oda])[Aib]I[Aib]LDKQRQ[Iva]EFVRHLLNK[Aib]TRQR[Phe(2-F)]-NH2 (reading uncertain; also: printed as Me-Tyr-Aib-Glu-Gly-Thr-αMePhe-Thr-Ser-Asp-Lys(-Gly-Gly-Gly-Gly-Oda)-Aib-Ile-Aib-Leu-Asp-Lys-Gln-Arg-Gln-Iva-Glu-Phe-Val-Arg-His-Leu-Leu-Asn-Lys-Aib-Thr-Arg-Gln-Arg-Phe(2-F)-NH2)", 1),
    ("H-Y[Aib]EGT[αMeF]TSDK([Gly-Gly-Gly-Gly-Pal])SI[Aib]LDKQRQ[Iva]EFVRHLLNK[Aib]TRQRY-NH2", 0.048),
]
